tested on: p38-delta; conditions: concentration: 1 μM, replicates: in singlicate; n = 1;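 further: KINOMEscan kinase panel screen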

compound	unit-of-measurement	%Inh
Cc1cccc(-c2nc(C)cc(Nc3ccncc3)n2)n1	%	51
COc1ccc(C2=C(Nc3cccc(C(=O)O)c3)C(=O)NC2=O)cc1	%	2
Fc1cc(Cl)ccc1Nc1ccnc2cc(-c3ccc(CN4CCCCC4)o3)ccc12	%	40
O=C(Nc1n[nH]c2nc(-c3nccs3)c(Br)cc12)C1CC1	%	20
Cc1ccc(C(=O)Nc2ccc(Nc3ccnc4cc(-c5ccccn5)ccc34)cc2O)cc1.Cl	%	42
O=C(O)COc1ncnc2cc(-c3ccc4[nH]ncc4c3)sc12	%	32
O=C1NC(=O)C(N2CCc3ccccc32)=C1c1ccccc1Cl	%	6
NC(=O)c1nnc2ccccc2c1N	%	0
CC1=C(C(=O)Nc2cc3cn[nH]c3cc2F)C(c2ccc(C(F)(F)F)cc2)CC(=O)N1 (centres unmarked)	%	21
COc1cc2ncnc(Nc3ccc4nc(-c5ccccc5)[nH]c4c3)c2cc1OC.Cl	%	36
Cc1cc(NCC(c2ccccc2)c2ccccc2)nc(NCc2ccc(C(F)(F)F)cc2)n1	%	45
CC(C)(C)c1ccc(C(=O)Nc2cn3cc(-c4cccnc4)ccc3n2)cc1	%	46
COc1ccc(CNC(=O)NC2CCN(c3ccnc(Nc4cc(OC)c(OC)c(OC)c4)n3)C2)cc1 (centres unmarked)	%	26
O=c1cc(N2CCOCC2)nc2n(Cc3cccc(Cl)c3Cl)ccn12	%	40
COc1ccc(Nc2nccc(NCCNC(=O)Nc3ccccc3F)n2)cc1	%	38
O=S(=O)(c1ccc(-c2ccnc3[nH]ccc23)cc1)N1CCCC1	%	11
Cc1c(Cn2ccn3c(=O)cc(N4CCOCC4)nc23)cccc1C(F)(F)F	%	12
Cc1cccc(-c2nc(Nc3ccc4[nH]ncc4c3)c3ccccc3n2)n1	%	0
Cc1cc(N2Cc3ccccc3C2)nc(Nc2ccc(S(=O)(=O)N3CCOCC3)cc2)n1.Cl	%	46
Cc1ccc(NC(=O)Nc2cccc(Cl)c2)cc1-c1ccc(C(=O)Nc2ccncc2)cc1	%	37
Cc1cccc(-c2nc(Nc3ccncc3)c3ccccc3n2)n1	%	0
CCCc1ccc(S(=O)(=O)NC2CCN(c3ccnc(Nc4ccc(F)cc4)n3)C2)cc1 (centres unmarked)	%	29
Cl.NC(=O)c1cccc(Nc2nccc(Nc3ccc(Oc4cccc(Cl)c4)c(Cl)c3)n2)c1	%	38
